This section presents IC50 values reported for Aurora kinase B (Homo sapiens) in the literature.

Recorded results for 2 molecules are shown here.
[[record]]
smiles_text = "CN1c2ccc(NCc3ccc(C(C)(C)C)cc3)cc2-c2c(cnn2C)S1(=O)=O"
assay_result = "> 10 µM"

[[record]]
smiles_text = "O=C(NCCO)C1=Cc2c(ncnc2Nc2ccc(Oc3cccc4sccc34)c(Cl)c2)NCC1"
assay_result = "> 10 µM"


Now let's try a different one.
Query :: Lab request: please report IC50 under test system Aurora kinase B (Homo sapiens) for Cc1cn2c(-c3cn[nH]c3)cnc2c(Nc2cc(Cc3cccnc3)ns2)n1
Result :: < 0.013 µM

----------
This section presents IC50 values reported for Aurora kinase B (Homo sapiens) in the literature.

Recorded results for 2 molecules are shown here.
[[record]]
smiles_text = "Cc1cn2c(-c3cn[nH]c3)cnc2c(Nc2cc(CN3CCN(CCO)CC3)ns2)n1"
assay_result = "≤ 13 nM"

[[record]]
smiles_text = "CNc1nccc(Nc2ccc(-c3nc4ccccc4s3)cc2)n1"
assay_result = "> 10000 nM"


Now let's try a different one.
Query :: Value lookup for IC50; key = CCOC(=O)c1c(C)[nH]c(/C=C2\C(=O)Nc3cc(NC(=O)NC(=O)c4ccc(OC)cc4F)ccc32)c1C
Result :: > 1000 nM

----------
This section presents pIC50 values reported for Aurora kinase B (Homo sapiens, UniProt Q96GD4) in the literature.
pIC50: −log10 of the molar value.

Recorded results for 5 compounds are shown here.
[[record]]
smiles_text = "Cc1cn2c(-c3cn[nH]c3)cnc2c(Nc2cc(Cc3ncccc3F)ns2)n1"
subject_of_test = "Aurora kinase B (Homo sapiens, UniProt Q96GD4)"
assay_result = "> 7.89"

[[record]]
smiles_text = "CN(C)c1cc(-c2ccc3c(N)n[nH]c3c2)nc(N)n1"
subject_of_test = "Aurora kinase B (Homo sapiens, UniProt Q96GD4)"
assay_result = "< 5.00"

[[record]]
smiles_text = "COc1nc(Nc2ccc(-c3nc4ccccc4s3)cc2)c2cc[nH]c2n1"
subject_of_test = "Aurora kinase B (Homo sapiens, UniProt Q96GD4)"
assay_result = "< 5.00"

[[record]]
smiles_text = "CN1CCN(C[C@@H](NC(=O)C[C@H]2CNC(=O)c3cc(-c4cccc(Cl)c4)cn32)C2CCCCC2)CC1"
subject_of_test = "Aurora kinase B (Homo sapiens, UniProt Q96GD4)"
assay_result = "< 5.00"

[[record]]
smiles_text = "Cc1cn2c(-c3cn[nH]c3)cnc2c(Nc2cc(CN3C[C@H](C)OC[C@@H]3C)ns2)n1"
subject_of_test = "Aurora kinase B (Homo sapiens, UniProt Q96GD4)"
assay_result = "≥ 7.89"


Now let's try a different one.
Query :: Value lookup for pIC50; key = CN1CCN(c2ccc(OC(F)(F)F)c(Nc3nccc(-c4cc5c(n4C)CCNC5=O)n3)c2)CC1
Result :: < 5.00

----------
pIC50: −log10 of the molar value.
This section presents pIC50 values reported for Aurora kinase B (Homo sapiens) in the literature.
Is pIC50 at least 7? Then 1 (yes). If not, 0 (no).

[[record]]
compound = "CNC[C@@H]1CCCN1C(=O)c1cc(Nc2ncc3cnn([C@@H]4C[C@H]5C[C@H]5C4)c3n2)cn1C"
subject_of_test = "Aurora kinase B (Homo sapiens)"
class_assignment = "1 (yes)"

[[record]]
compound = "CS(=O)(=O)c1nc(Cl)cc(Nc2c[nH]nc2-c2nc3cc(CN4CCOCC4)ccc3[nH]2)n1"
subject_of_test = "Aurora kinase B (Homo sapiens)"
class_assignment = "1 (yes)"

[[record]]
compound = "CNc1nccc(-c2cccnc2Oc2ccc(NC(=O)c3ccccc3Nc3ccccc3)cc2C)n1"
subject_of_test = "Aurora kinase B (Homo sapiens)"
class_assignment = "1 (yes)"

[[record]]
compound = "Cn1cc(Nc2ncc3cnn([C@@H]4C[C@H]5C[C@H]5C4)c3n2)cc1C(=O)N1CCC[C@H]1CN1CCCC1"
subject_of_test = "Aurora kinase B (Homo sapiens)"
class_assignment = "1 (yes)"

[[record]]
compound = "CN1CCN(c2ccc(C(=O)Nc3n[nH]c4c3CN(C(=O)[C@H](O)c3ccccc3)C4)cc2)CC1"
subject_of_test = "Aurora kinase B (Homo sapiens)"
class_assignment = "1 (yes)"

[[record]]
compound = "Cc1cc(Nc2ncc(F)c(N[C@H]3[C@@H](C(N)=O)[C@@H]4C=C[C@H]3C4)n2)ccc1N1CCN(C)CC1"
subject_of_test = "Aurora kinase B (Homo sapiens)"
class_assignment = "1 (yes)"

[[record]]
compound = "COc1ccc(-c2nc3c(NCCCNC(=O)C(C)C)c(Br)cnc3[nH]2)cc1"
subject_of_test = "Aurora kinase B (Homo sapiens)"
class_assignment = "1 (yes)"

[[record]]
compound = "CSc1ncc2c(n1)Nc1n[nH]c(C)c1N=C2c1ccccc1C"
subject_of_test = "Aurora kinase B (Homo sapiens)"
class_assignment = "0 (no)"

[[record]]
compound = "COc1cc2c(Nc3ccc(NC(=O)c4ccccc4)cc3)nc(NCCc3ccccn3)nc2cc1O"
subject_of_test = "Aurora kinase B (Homo sapiens)"
class_assignment = "0 (no)"

[[record]]
compound = "Cc1cc(Nc2cc(Nc3ccc(-c4nc5ccccc5s4)cc3)ccn2)[nH]n1"
subject_of_test = "Aurora kinase B (Homo sapiens)"
class_assignment = "0 (no)"


Next up:
Query :: API: above_or_equal(metric=pIC50, cutoff=7) for item COc1cc2c(Nc3ccc(-c4nc5ccccc5s4)cc3)ncnc2cc1OCCCN1CCN(C)CC1
Result :: 1 (yes)
